Test system: OVCAR-3 ovarian
Assay: NCI tumour cell line growth inhibition, 48 h
quantityMeasured: TGI

Nc1nn2c(=O)c3ccccc3nc2s1 > 100 µM

Can you share its TGI? I mean this compound: O=[N+]([O-])c1ccc(Sc2c3ccccc3nc3cc(Cl)ccc23)cc1 > 100 µM

Also CC(C)CCC1(CCN)C(=O)NC(=O)NC1=O ? > 100 µM

* * *

TGI values for the molecules below.
Test system: SN12C renal
Assay: NCI tumour cell line growth inhibition, 48 h

Answered examples (6):
molecule	TGI
O=C(N/N=C/c1ccccc1O)c1ccccc1	> 100 µM
CCOC(=O)c1nc2cc(C(F)(F)F)ccc2nc1Nc1ccc(C(=O)NC(C(=O)OCC)C(=O)OCC)cc1	47.2 µM
N/N=C1\C(=O)N(CCc2ccccc2)C(=O)C1C(=O)NCCc1ccccc1 (configuration not stated)	> 100 µM
CCOC(=O)c1cc2c3c(c(O)c(OC)c2s1)N(C(=O)c1cc2c4c(c(O)c(OC)c2s1)N(C(C)=O)CC4)CC3	> 100 µM
COc1ccc(OC)c(Cn2cc3c(c2-c2ccccc2)CCc2cnoc2-3)c1	> 100 µM
O=C(N/N=C/c1ccc(Br)cc1)N/N=C/c1ccc(Br)cc1	17.4 µM

# context switch: different molecule, same TGI
Can you share its TGI? I mean this molecule: COc1cc2ccc1OCc1cccc(n1)COc1ccc(cc1OC)C=Nc1ccc(cc1)N=C2 > 100 µM

* * *

TGI values for the compounds below.
Test system: EKVX NSCLC
Test: NCI tumour cell line growth inhibition, 48 h
// units = µM; emit number, no label

Can you share its TGI? I mean this compound: CSC(=S)N/N=C/c1nccc2ccccc12 12.8

Also CCCCN(CCCC)C(=O)/C(CC(=O)c1cccc2ccccc12)=N\NC(=O)c1cc2ccccc2cc1O ? 50.9

Also CN(C)CCC(=O)/C=C\c1ccccc1 ? 33.9

Also O=c1oc2ccc(I)cc2c(=O)n1-c1ccc(Cl)cc1F ? 8.77

* * *

Tested on: EKVX NSCLC
Assay: NCI tumour cell line growth inhibition, 48 h
quantityMeasured: TGI

Answered examples (2):
molecule	TGI
CCNC(=O)c1noc(-c2cc(C(C)C)c(O)cc2O)c1-c1ccc(CN2CCOCC2)cc1	> 100 µM
Cc1c(C(=O)O)oc2ccc([N+](=O)[O-])cc12	> 100 µM

Can you share its TGI? I mean this molecule: O=C(O)c1ccc(C2C(=O)N[C@@H]3CCC[C@H]23)cc1 (stereo partly drawn) > 100 µM
